Test: Cytotoxicity against Felis catus (cat) CRFK cells assessed as change in cellular morphology
Format: cell-based
Conditions: crfk
Lab note: compare CC50 with 7 µM, writing Criterion met if less and Criterion not met if equal or more.

> print(dat)
                           smiles.structure     discrete.label
1  CCN(CC)CN1C(=O)/C(=N/NC(=S)Nc2ccc(Cl)cc2)c2ccccc21      Criterion met
2    CCN(CC)CN1C(=O)/C(=N/NC(N)=S)c2ccccc21  Criterion not met
3  CCN(CC)CN1C(=O)/C(=N/NC(=S)Nc2ccc(OC)cc2)c2cc(Cl)ccc21      Criterion met
4  CCN(CC)CN1C(=O)/C(=N/NC(=S)Nc2ccc(C)cc2)c2ccccc21      Criterion met
5  CCN(CC)CN1C(=O)/C(=N/NC(=S)Nc2ccc(C)cc2)c2cc(Cl)ccc21  Criterion not met

Please check: CC50 for CCN(CC)CN1C(=O)/C(=N/NC(=S)Nc2ccccc2)c2ccccc21 , strictly under 7 µM or not?
Criterion not met

Please check: CC50 for CCN(CC)CN1C(=O)/C(=N/NC(=S)Nc2ccc(Cl)cc2)c2cc(Cl)ccc21 , strictly under 7 µM or not?
Criterion not met

Please check: CC50 for CCN(CC)CN1C(=O)/C(=N/NC(=S)Nc2ccc(OC)cc2)c2ccccc21 , strictly under 7 µM or not?
Criterion met

Please check: CC50 for CCN(CC)CN1C(=O)/C(=N/NC(N)=S)c2cc(Cl)ccc21 , strictly under 7 µM or not?
Criterion not met
